tested on: SK-MEL-5 melanoma; assay: NCI-60 one-dose screen, 48 h; conditions: 10 µM
About 83,000 compounds went through this panel and 20% of them were active in at least one assay; those are over-represented in the sample as a whole. The source made the active and inactive calls. Rule for the calls: active = growth percent below 10; inactive = the rest.
Outcome codes: YES = active, NO = inactive

> print(dat)
                                    compound  class
 1  COc1ccc2ncc(C#Cc3cncc(C(=O)Nc4ccc(CN5CCN(C)CC5)c(C(F)(F)F)c4)c3)n2n1    YES
 2  COc1ccc(-c2nc(Nc3ccccc3S(N)(=O)=O)c3ccccc3n2)cc1     NO
 3  COc1ccc(/C=C/C(=O)c2ccc(S(=O)(=O)NCCNc3nc(Nc4ccc(F)cc4)nc(N(C)C)n3)cc2)cc1     NO
 4  COc1ccc(N2N=C(c3ccc4c(c3)OCCO4)CC2c2cccc(NC(=O)CCCNS(=O)(=O)c3ccc(F)cc3)c2)cc1 (configuration not stated)     NO
 5  O/N=C(\CSc1nnc(-c2c[nH]c3ccccc23)n1-c1ccccc1)c1ccc(Br)cc1    YES
 6  CN1CCN(c2ccc(Nc3nc(NCCCNC(=O)c4ccccc4)c4sccc4n3)cc2)CC1     NO
 7  Cc1ccc(CSc2nc(-c3ccc(F)cc3)c(C#N)c(=O)[nH]2)cc1     NO
 8           Cc1ccc(C(C)C)cc1NC(=O)c1ccccc1O    YES
 9  CO[C@@H]1CSSC1Cn1nc(-c2ccc(Oc3ccccc3)cc2)c2c(N)ncnc21 (some centres not stated)    YES
10  CCOC(=O)c1c(CSc2ccccc2)n(C)c2cc(CN(C)C)c(O)c(CN(C)C)c12     NO
11  CSc1nc(-c2cccc(C)c2)c2cc(-c3ccccc3)n(C)c2n1    YES
12  N#Cc1c(Cl)nc(SCc2ccc(F)cc2)nc1-c1ccc(F)cc1     NO
13  CC(C)(C)Nc1nc2cc(Cl)c(Cl)cc2nc1S(C)(=O)=O    YES
14  N#Cc1c(NC(=O)c2ccc(C(F)(F)F)cc2)sc2c1CCC(=O)C2    YES
15  O=C(Nc1cccc(C(F)(F)F)c1)c1cncc(C#Cc2cnc3ccc(N4CCOCC4)nn23)c1    YES
16  COc1ccc2nc(Cl)c(-c3cc(-c4ccccc4)nc(=O)[nH]3)cc2c1     NO
17  CC(=O)c1ccc(Nc2nc(SCCC(C)C)nc(-c3ccc(F)cc3)c2C#N)cc1     NO
18  COc1cc(/C=N/NC(=O)c2ccc3nc(-c4ccc(Cl)cc4)[nH]c3c2)cc(OC)c1OC    YES
19        O=C(CNc1nc(-c2ccccc2)cs1)Nc1ccccc1    YES
20  Cc1ccc(C(=O)Nc2ccc(-n3c(C)nc4c(cnn4-c4ccccc4)c3=O)cc2)cc1    YES
21  O=C(NCCCCCCCCCC[P+](c1ccccc1)(c1ccccc1)c1ccccc1)c1ccc(-n2nc(-c3ccccc3O)nc2-c2ccccc2O)cc1    YES
22  CCOC(=O)C1=C(N)N(c2ccc(Cl)cc2)C2=C(C(=O)CC(C)(C)C2)C1c1ccc(N2CCOCC2)cc1 (configuration not stated)     NO
23  CN1CCN(c2ccc(Nc3nc(N4CCN(S(=O)(=O)c5ccc(Cl)cc5)CC4)c4sccc4n3)cc2)CC1    YES
24  Cc1ccc(-c2ccc(SCC(=O)Nc3ccc(Cl)c(C(F)(F)F)c3)nn2)cc1     NO
25  O=c1c2ccccc2nc(COc2ccccc2)n1/N=C/c1ccc(N2CCCC2)cc1     NO
26  O=C(CS(=O)(=O)c1oc(-c2ccc(Cl)cc2)nc1S(=O)(=O)c1ccccc1)N1CCCC1     NO
27  CCCSc1nc(NC2CC2)c(C#N)c(-c2ccc(OC)cc2)n1     NO
28  Cc1ccc(-c2nc3ccc(C(=O)N=Nc4c(O)[nH]c5ccc(Cl)cc45)cc3[nH]2)cc1     NO
29  C/C(=N\N=C\c1ccc(N(C)C)cc1)c1ccc2c(c1)Nc1ccccc1S2     NO
30  COc1cc(-c2nc3cc(Cl)c(Cl)cc3[nH]2)ccc1OCc1nnc(-c2ccc(Br)cc2)o1    YES
31  COC[C@@H](CC(C)C)N=C1N/C(=C\c2ccc3ncsc3c2)C(=O)N1C    YES
32  O=C(NO)c1ccc(-c2nc3ccc4[nH]ncc4c3c3c2CCCC3)cc1    YES

Where do the numbers come from? From PubChem BioAssay (NCI).
